Here the recorded pIC50 is given for each entry.
Tested on: HepG2 cells
assay_details: Anti-tumor activity assay (IC50 value), cells counted after three days
stated_conditions: Homo sapiens, HepG2, 72 h, read-out: IC50 HepG2
// scale note: pIC50 = -log10(conc_M); give the bare number

molecule | measured_result
C[C@H](N)C(=O)NCCCn1cc(/C=C2\SC(=O)N(Cc3ccc(F)cc3)C2=O)c2ccccc21 | 5.10

Consider CC[C@H](C)[C@H](N)C(=O)NCCCn1cc(/C=C2\SC(=O)N(Cc3ccc(F)cc3)C2=O)c2cc(Br)ccc21 . Its measured pIC50 is 5.75

Consider CNC(=O)c1cc(Oc2ccc(NC(=O)Nc3ccc(Cl)c(C(F)(F)F)c3)c(F)c2)ccn1 [Regorafenib, reference compound] . Its measured pIC50 is 5.38

Consider O=C(NCCCn1cc(/C=C2\SC(=O)N(Cc3ccc(F)cc3)C2=O)c2ccccc21)[C@@H]1CCCN1 . Its measured pIC50 is 5.21

* * *

assay_details: in vitro
stated_conditions: human, microsomes
assay_endpoint: half-life at 1 μM (min)
Report only the number, with the unit min understood.

Consider CC(C)[C@H](N)C(=O)NCCCn1cc(/C=C2\S/C(=N\c3ccc(N4CCOCC4)cc3)N(Cc3ccc(F)cc3)C2=O)c2ccccc21 [Tc3] . Its measured half-life at 1 μM is 49.5

* * *

assay_details: Pharmacokinetic study of vein administration
Type: in vivo
stated_conditions: mouse, whole blood; Balb/c mice, intravenous 10 mg/kg
assay_endpoint: AUC(0-t) (ng·h/mL)
Report only the number, with the unit ng·h/mL understood.

Consider CC(C)[C@H](N)C(=O)NCCCn1cc(/C=C2\S/C(=N\c3ccc(N4CCOCC4)cc3)N(Cc3ccc(F)cc3)C2=O)c2ccccc21 . Its measured AUC(0-t) is 1520

* * *

assay_details: Pharmacokinetic study of vein administration
Format: in vivo
stated_conditions: mouse, whole blood; Balb/c mice, intravenous 10 mg/kg; read-out: half-life elimination t1/2 (converted)
assay_endpoint: half-life
Lab note: write values as number then unit, every time.

Consider CC(C)[C@H](N)C(=O)NCCCn1cc(/C=C2\S/C(=N\c3ccc(N4CCOCC4)cc3)N(Cc3ccc(F)cc3)C2=O)c2ccccc21 . Its measured half-life is 8.08 h

* * *

Test system: SK-Hep1 cells
assay_details: Anti-tumor activity assay (IC50 value), cells counted after three days
stated_conditions: read-out: IC50 SK-Hep1; 72 h
assay_endpoint: pIC50
// scale note: pIC50 = -log10(conc_M); give the bare number

Item: CNC(=O)c1cc(Oc2ccc(NC(=O)Nc3ccc(Cl)c(C(F)(F)F)c3)cc2)ccn1 [Sorafenib, reference compound] | System: SK-Hep1 cells | pIC50: 5.36

* * *

Test system: HepG2 cells
assay_details: Anti-tumor activity assay (IC50 value), cells counted after three days;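 further: HepG2 cells exposed to a drug concentration series for 3 days, then counted with a hemocytometer, inhibition relative to untreated control cell number, IC50 obtained by curve fitting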
stated_conditions: Homo sapiens, HepG2, 72 h, read-out: IC50 HepG2
assay_endpoint: IC50 (µM)
Report only the number, with the unit µM understood.

Use the examples below as a reference point.
compound | measured_result
N[C@@H](Cc1ccc(O)cc1)C(=O)NCCCn1cc(/C=C2\SC(=O)N(Cc3ccc(F)cc3)C2=O)c2cc(Br)ccc21 | 11.3
Nc1ccn([C@@H]2O[C@H](CO)[C@@H](O)C2(F)F)c(=O)n1 [Gemcitabine, reference compound] | 0.14
COc1ccc2c(c1)c(/C=C1\SC(=O)N(Cc3ccc(F)cc3)C1=O)cn2CCCNC(=O)[C@@H](N)Cc1ccc(O)cc1 | 6.92
COc1ccc2c(c1)c(/C=C1\SC(=O)N(Cc3ccc(F)cc3)C1=O)cn2CCCNC(=O)[C@@H]1CCCN1 | 7.47
O=C(NCCCn1cc(/C=C2\SC(=O)N(Cc3ccc(F)cc3)C2=O)c2ccccc21)C1CCCC1 | 27.7

Consider CSCC[C@H](N)C(=O)NCCCn1cc(/C=C2\SC(=O)N(Cc3ccc(F)cc3)C2=O)c2cc(Br)ccc21 . Its measured IC50 is 6.31

Consider CCCC/N=C1\S/C(=C\c2cn(CCCNC(=O)[C@@H](N)C(C)C)c3ccccc23)C(=O)N1Cc1ccc(F)cc1 . Its measured IC50 is 25
